These measurements were taken from patent US20240158348A1.

Measured Plant response rating (0 to 100 scale), Foxtail, Giant by item
# Test system: foxtail, giant (giant foxtail, Setaria faberi)
# assay_comment: Test C preemergence, giant foxtail
# Assay type: in vivo
# details: 31 g ai/ha Preemergence; 0 is no effect, 100 is complete control
Note: the reply should be a number with no unit written.

compound	readout_value
Cc1c(NS(=O)(=O)C(F)(F)F)cc(N2CCCC(OC3CCC3)C2=O)c(C)c1F (stereo not shown) [Compound 36]	50
Cc1c(N2CCC(OC3CCC3)C2=O)cc(N(COC(=O)C(C)(C)C)S(=O)(=O)C(F)(F)F)c(C)c1F (stereo not shown) [Compound 28]	70
Cc1cc(C)c(N2CCC(OCC3CC3)C2=O)cc1NS(=O)(=O)C(F)(F)F (stereo not shown) [Compound 22]	100
CCO/N=C1\CCN(c2cc(NS(=O)(=O)C(F)(F)F)c(C)cc2C)C1=O [Compound 12]	100
Cc1c(NS(=O)(=O)C(F)(F)F)cc(N2CCC(OC3CCC3)C2=O)c(C)c1F (stereo not shown) [Compound 25]	100

Problem: Which Plant response rating (0 to 100 scale), Foxtail, Giant is listed for C#CC(C)OC1CCN(c2cc(NS(=O)(=O)C(F)(F)F)c(C)cc2C)C1=O (stereo not shown) [Compound 58] ?
Result: 100

Problem: Would you mind doing Cc1c(NS(=O)(=O)C(F)(F)F)cc(N2CCC(OC3CC3)C2=O)c(C)c1F (stereo not shown) [Compound 26] as well?
Result: 90
